TEST: Cmax in C57/BL6 mouse blood at 20 mg/kg, po measured upto 24 hrs by LC-MS/MS analysis
Type: ADME, organism-based
Design: route oral, dose 20 mg/kg, time <=24
CONDITION_DESCRIPTION: mouse, in vivo, 24 h
PROPERTY: Cmax (µM)
Return type: number; implicit unit µM.

Record summary for `Cc1cc(C)n(-c2nc(C(F)(F)F)cc(=O)[nH]2)n1` : reported Cmax = 65.6

====

TEST: Lipophilicity, log D of the compound in n-octanol and phosphate buffer at pH 7.4 measured after 3 hrs by HPLC-DAD analysis
Type: physicochemical
PROPERTY: logD at 3 h
I'd appreciate a reply containing only the number, no unit.

Reported logD at 3 h of `Cc1cc(C)n(-c2nc(O)cc(-c3ccccc3)n2)n1` : 2.5

The molecule listed as `Cc1ccc(Nc2cc(C)nn2-c2nc(C)cc(O)n2)cc1` has a reported logD at 3 h of 2.2

====

TEST: Metabolic stability in human liver microsomes assessed as parent compound remaining after 30 mins
Format: ADME, Microsome
CONDITION_DESCRIPTION: 0.5 h
PROPERTY: Stabilty

Form field Stabilty, entry `Cc1cc(C)n(-c2nc(C(F)(F)F)cc(=O)[nH]2)n1` : > 99%

Recorded result, `Cc1cc(C)n(-c2nc(-c3ccccc3)c(C)c(=O)[nH]2)n1` , Stabilty: 65%

According to the records, this compound `CCNc1cc(C)nn1-c1nc(-c2cccnc2)cc(=O)[nH]1` displays Stabilty of 80%

So, `Cc1cc(NC2CCOCC2)n(-c2nc(C(F)(F)F)cc(=O)[nH]2)n1` ? Its Stabilty was > 99%

Looking up `Cc1cc(Nc2ccccn2)n(-c2nc(C(F)(F)F)cc(=O)[nH]2)n1` , I see its Stabilty listed as > 99%

In plain terms, `Cc1cc(Nc2ccc(F)cc2)n(-c2nc(C(F)(F)F)cc(=O)[nH]2)n1` has a documented Stabilty of 98%

====

TEST: Volume of distribution during elimination phase in C57/BL6 mouse blood at 2 mg/kg, iv administered as bolus dose measured upto 24 hrs by LC-MS/MS analysis
Format: ADME, organism-based
CONDITION_DESCRIPTION: C57/BL6, mouse, blood, read-out: Vd
Consider the following molecules; for each one, report its Vd.
The response must be a number in L/kg with no trailing unit.

Vd measured on `Cc1cc(Nc2ccc(F)cc2)n(-c2nc(C(F)(F)F)cc(=O)[nH]2)n1` = 37.4

Consider `CCNc1cc(C)nn1-c1nc(-c2cccnc2)cc(=O)[nH]1` . Its measured Vd is 0.1
